test: Toxicokinetic, plasma concentration of compound I-6-II after empty liposome preparation; format: in vivo, cynomolgus monkeys; details: male, cynomolgus monkey, plasma, im, 1200 ug, empty liposome high-dosage group (1200 μg compound I-6-II/animal), intramuscular, D 1, male, Mean
Parameter Measured: AUC(0-t) (ng·h/mL)
Field format: number, assumed ng·h/mL, no unit text.

Data request: Which measured AUC(0-t) value corresponds to CCCCCCCCCOC(=O)CCCCCCCN(CCCCCCCC(=O)OC(CCCCCCCC)CCCCCCCC)[C@@H]1CCC[C@H](O)C1 ?
Data returned: 2240

====

assay: Toxicokinetic, plasma concentration of compound I-6-II after empty liposome preparation; assay type: in vivo, cynomolgus monkeys; settings: male, cynomolgus monkey, plasma, im, 300 ug, empty liposome low-dosage group (300 μg compound I-6-II/animal), intramuscular, D 29, male, Mean
Parameter Measured: Tmax (h)
Field format: number, assumed h, no unit text.

Data request: Which measured Tmax value corresponds to CCCCCCCCCOC(=O)CCCCCCCN(CCCCCCCC(=O)OC(CCCCCCCC)CCCCCCCC)[C@@H]1CCC[C@H](O)C1 [Compound (I-6-II)] ?
Data returned: 7.2

====

assay: Stability of lipid nanoparticles at 25° C., DLS particle size and PDI; type: physicochemical; conditions: week 1, storage at 25° C.
Parameter Measured: PDI
Answer with a number only.

Data request: Which measured PDI value corresponds to CCCCCCCCCOC(=O)CCCCCCCN(CCO)CCCCCCCC(=O)OC(CCCCCCCC)CCCCCCCC [SM102, reference compound] ?
Data returned: 0.16

Data request: Now try CCCCCCCCCCCOC(=O)CCCCCN(CCCCCCCC(=O)OC(CCCCCCCC)CCCCCCCC)C1CCC(O)C1 (centres unmarked) .
Data returned: 0.05

Data request: Now try CCCCCCCCCOC(=O)CCCCCCCN(CCCCCCOC(=O)C(CCCCCC)CCCCCCCC)C1CCCC(O)C1 (centres unmarked) .
Data returned: 0.03

Data request: Now try CCCCCCCCCOC(=O)CCCCCCCN(CCCCCCCC(=O)OC(CCCCCCCC)CCCCCCCC)C1CCCC(O)C1 (centres unmarked) .
Data returned: 0.05

Data request: Now try CCCCCCCCCCCOC(=O)CCCCCN(CCCCCCCC(=O)OC(CCCCCCCC)CCCCCCCC)C1CCCC(O)C1 (centres unmarked) .
Data returned: 0.05

====

experiment: Toxicokinetic, plasma concentration of compound I-6-II after empty liposome preparation; format: in vivo, cynomolgus monkeys; conditions: female, cynomolgus monkey, plasma, im, 300 ug, empty liposome low-dosage group (300 μg compound I-6-II/animal), intramuscular, D 29, female, Mean
Parameter Measured: Cmax (ng/mL)
Field format: number, assumed ng/mL, no unit text.

Data request: Which measured Cmax value corresponds to CCCCCCCCCOC(=O)CCCCCCCN(CCCCCCCC(=O)OC(CCCCCCCC)CCCCCCCC)[C@@H]1CCC[C@H](O)C1 [Compound (I-6-II)] ?
Data returned: 59.3

====

Please go through the items and note down their Z-Average.
assay: Stability of lipid nanoparticles at 25° C., DLS particle size and PDI; format: physicochemical; details: week 1, storage at 25° C.
Field format: number, assumed nm·days, no unit text.

Data request: Which measured Z-Average value corresponds to CCCCCCCCCOC(=O)CCCCCCCN(CCCCCCOC(=O)C(CCCCCC)CCCCCCCC)C1CCCC(O)C1 (centres unmarked) [Compound 9] ?
Data returned: 120

Data request: Now try CCCCCCCCCCCOC(=O)CCCCCN(CCCCCCCC(=O)OC(CCCCCCCC)CCCCCCCC)C1CCCC(O)C1 (centres unmarked) [Compound 7] .
Data returned: 105

Data request: Now try CCCCCCCCCCCOC(=O)CCCCCN(CCCCCCCC(=O)OC(CCCCCCCC)CCCCCCCC)C1CCC(O)C1 (centres unmarked) [Compound 5] .
Data returned: 110

Data request: Now try CCCCCCCCCOC(=O)CCCCCCCN(CCCCCCCC(=O)OC(CCCCCCCC)CCCCCCCC)C1CCCC(O)C1 (centres unmarked) [Compound 6] .
Data returned: 110

Data request: Now try CCCCCCCCCOC(=O)CCCCCCCN(CCO)CCCCCCCC(=O)OC(CCCCCCCC)CCCCCCCC [SM102, reference compound] .
Data returned: 145

====

experiment: Toxicokinetic, plasma concentration of compound I-6-II after empty liposome preparation; format: in vivo, cynomolgus monkeys; conditions: male, cynomolgus monkey, plasma, im, 300 ug, empty liposome low-dosage group (300 μg compound I-6-II/animal), intramuscular, D 1, male, Mean
Parameter Measured: AUC(0-t) (ng·h/mL)
Field format: number, assumed ng·h/mL, no unit text.

Data request: Which measured AUC(0-t) value corresponds to CCCCCCCCCOC(=O)CCCCCCCN(CCCCCCCC(=O)OC(CCCCCCCC)CCCCCCCC)[C@@H]1CCC[C@H](O)C1 [Compound (I-6-II)] ?
Data returned: 652

====

test: Toxicokinetic, plasma concentration of compound I-6-II after empty liposome preparation; type: in vivo, cynomolgus monkeys; conditions: male, cynomolgus monkey, plasma, im, 1200 ug, empty liposome high-dosage group (1200 μg compound I-6-II/animal), intramuscular, D 29, male, Mean
Parameter Measured: Cmax (ng/mL)
Field format: number, assumed ng/mL, no unit text.

Data request: Which measured Cmax value corresponds to CCCCCCCCCOC(=O)CCCCCCCN(CCCCCCCC(=O)OC(CCCCCCCC)CCCCCCCC)[C@@H]1CCC[C@H](O)C1 ?
Data returned: 146

====

Please go through the items and note down their Z-Average.
assay: Stability of lipid nanoparticles at 25° C., DLS particle size and PDI; assay type: physicochemical; conditions: week 4, storage at 25° C.
Field format: number, assumed nm·days, no unit text.

Data request: Which measured Z-Average value corresponds to CCCCCCCCCOC(=O)CCCCCCCN(CCCCCCCC(=O)OC(CCCCCCCC)CCCCCCCC)C1CCCC(O)C1 (centres unmarked) ?
Data returned: 125

Data request: Now try CCCCCCCCCCCOC(=O)CCCCCN(CCCCCCCC(=O)OC(CCCCCCCC)CCCCCCCC)C1CCC(O)C1 (centres unmarked) .
Data returned: 115

Data request: Now try CCCCCCCCCOC(=O)CCCCCCCN(CCO)CCCCCCCC(=O)OC(CCCCCCCC)CCCCCCCC [SM102, reference compound] .
Data returned: 245

Data request: Now try CCCCCCCCCOC(=O)CCCCCCCN(CCCCCCOC(=O)C(CCCCCC)CCCCCCCC)C1CCCC(O)C1 (centres unmarked) .
Data returned: 125

Data request: Now try CCCCCCCCCCCOC(=O)CCCCCN(CCCCCCCC(=O)OC(CCCCCCCC)CCCCCCCC)C1CCCC(O)C1 (centres unmarked) .
Data returned: 120

====

assay: Stability of lipid nanoparticles at 25° C., DLS particle size and PDI; format: physicochemical; settings: week 2, storage at 25° C.
Please go through the items and note down their Z-Average.
Field format: number, assumed nm·days, no unit text.

Data request: Which measured Z-Average value corresponds to CCCCCCCCCCCOC(=O)CCCCCN(CCCCCCCC(=O)OC(CCCCCCCC)CCCCCCCC)C1CCC(O)C1 (centres unmarked) ?
Data returned: 110

Data request: Now try CCCCCCCCCOC(=O)CCCCCCCN(CCCCCCOC(=O)C(CCCCCC)CCCCCCCC)C1CCCC(O)C1 (centres unmarked) .
Data returned: 125

Data request: Now try CCCCCCCCCCCOC(=O)CCCCCN(CCCCCCCC(=O)OC(CCCCCCCC)CCCCCCCC)C1CCCC(O)C1 (centres unmarked) .
Data returned: 115

Data request: Now try CCCCCCCCCOC(=O)CCCCCCCN(CCO)CCCCCCCC(=O)OC(CCCCCCCC)CCCCCCCC [SM102, reference compound] .
Data returned: 195

Data request: Now try CCCCCCCCCOC(=O)CCCCCCCN(CCCCCCCC(=O)OC(CCCCCCCC)CCCCCCCC)C1CCCC(O)C1 (centres unmarked) .
Data returned: 125

====

test: Stability of lipid nanoparticles at 25° C., DLS particle size and PDI; type: physicochemical; details: week 0 (day of preparation)
Please go through the items and note down their Z-Average.
Field format: number, assumed nm·days, no unit text.

Data request: Which measured Z-Average value corresponds to CCCCCCCCCOC(=O)CCCCCCCN(CCCCCCCC(=O)OC(CCCCCCCC)CCCCCCCC)C1CCCC(O)C1 (centres unmarked) [Compound 6] ?
Data returned: 110

Data request: Now try CCCCCCCCCOC(=O)CCCCCCCN(CCO)CCCCCCCC(=O)OC(CCCCCCCC)CCCCCCCC [SM102, reference compound] .
Data returned: 120

Data request: Now try CCCCCCCCCCCOC(=O)CCCCCN(CCCCCCCC(=O)OC(CCCCCCCC)CCCCCCCC)C1CCC(O)C1 (centres unmarked) [Compound 5] .
Data returned: 105

Data request: Now try CCCCCCCCCCCOC(=O)CCCCCN(CCCCCCCC(=O)OC(CCCCCCCC)CCCCCCCC)C1CCCC(O)C1 (centres unmarked) [Compound 7] .
Data returned: 95

Data request: Now try CCCCCCCCCOC(=O)CCCCCCCN(CCCCCCOC(=O)C(CCCCCC)CCCCCCCC)C1CCCC(O)C1 (centres unmarked) [Compound 9] .
Data returned: 115

Data credit: patent US20260015311A1
